In this section we review reported % inhibition of scanMAX Kinase profiling values for a set of compounds.
Tested on: scanMAX kinase panel (EGFR mutant, ERBB2, ERBB4)
TEST: DiscoverX (eurofin) KINOMEscan (scanMAX platform) kinase profiling
Type: binding
REPORTED_CONDITIONS: EGFR(T790M)
EXPERIMENTAL_ENDPOINT: % inhibition of scanMAX Kinase profiling

[[record]]
compound = "C=CC(=O)Nc1cc(Nc2cc(N3OCC[C@@H]3c3ccccc3)ncn2)c(OC)cc1N(C)CCN(C)C [Example 4]"
result = "99%"

[[record]]
compound = "C=CC(=O)Nc1cc(Nc2cc(N3OCC[C@@H]3c3cc(F)cc(F)c3)ncn2)c(OC)cc1N1CCC(N2CCN(C3CC3)CC2)CC1 [Example 57]"
result = "100%"

[[record]]
compound = "C=CC(=O)Nc1cc(Nc2cc(N3OCC[C@@H]3c3ccccc3)ncn2)c(OC)cc1N1CCN(C)CC1 [Example 6]"
result = "100%"


----------
TARGET_DESC: Ba/F3 cell EGFR Exon20 ins ASV (Homo sapiens, UniProt P00533, INS769ASV)
Construct: expressed in transfected cells; host or cells: Ba/F3
TEST: Ba/F3 cell proliferation suppression, EGFR Exon20 ins ASV
Format: cell-based
REPORTED_CONDITIONS: 72 hours after treatment, CellTiter-Glo
In this section we review reported GI50 values for a set of molecules.
EXPERIMENTAL_ENDPOINT: GI50

[[record]]
molecule = "C=CC(=O)Nc1cc(Nc2cc(N3OCC[C@@H]3c3ccccc3)ncn2)c(OC)cc1N1CCC(N2CCN(C)CC2)CC1 [Example 9]"
target_desc = "Ba/F3 cell EGFR Exon20 ins ASV (Homo sapiens, UniProt P00533, INS769ASV)"
result = "< 0.05 µM"

[[record]]
molecule = "C=CC(=O)Nc1cc(Nc2cc(N3OCC[C@@H]3c3ccccc3)ncn2)c(OC)cc1N1CCN(CC)CC1 [Example 15]"
target_desc = "Ba/F3 cell EGFR Exon20 ins ASV (Homo sapiens, UniProt P00533, INS769ASV)"
result = "< 0.05 µM"

[[record]]
molecule = "C=CC(=O)Nc1cc(Nc2cc(N3OCC[C@@H]3c3cc(F)cc(F)c3)ncn2)c(OC)cc1N1CCC(N2C[C@@H]3C[C@H]2CO3)CC1 [Example 239]"
target_desc = "Ba/F3 cell EGFR Exon20 ins ASV (Homo sapiens, UniProt P00533, INS769ASV)"
result = "< 0.05 µM"

[[record]]
molecule = "C=CC(=O)Nc1cc(Nc2cc(N3OCC[C@@H]3c3ccccc3)ncn2)ccc1N(C)CCN(C)C [Example 28]"
target_desc = "Ba/F3 cell EGFR Exon20 ins ASV (Homo sapiens, UniProt P00533, INS769ASV)"
result = "< 0.05 µM"

[[record]]
molecule = "C=CC(=O)Nc1cc(Nc2cc(N3OCC[C@@H]3c3ccccc3)ncn2)c(OC)cc1N1CCN(C2CCN(C)CC2)CC1 [Example 10]"
target_desc = "Ba/F3 cell EGFR Exon20 ins ASV (Homo sapiens, UniProt P00533, INS769ASV)"
result = "< 0.05 µM"


----------
Test system: H1975
TEST: Lung cancer cell proliferation suppression, H1975
Assay type: cell-based
REPORTED_CONDITIONS: Homo sapiens, NCI-H1975; 72 hours after treatment, CellTiter-Glo
EXPERIMENTAL_ENDPOINT: log10(GI50) (log10 of the value in nM)

[[record]]
structure_string = "C=CC(=O)Nc1cc(Nc2cc(N3OCC[C@@H]3c3cc(F)cc(F)c3)ncn2)c(OC)cc1N1CCC(N2C[C@H]3C[C@@H]2CO3)CC1"
experimental_endpoint = "log10(GI50)"
number = 0.00

[[record]]
structure_string = "C=CC(=O)Nc1cc(Nc2cc(N3OCC[C@@H]3c3ccccc3)ncn2)c(OC)cc1N(C)CCN(C)C"
experimental_endpoint = "log10(GI50)"
number = 1.45

[[record]]
structure_string = "C=CC(=O)Nc1cc(Nc2nccc(-c3cn(C)c4ccccc34)n2)c(OC)cc1N(C)CCN(C)C"
experimental_endpoint = "log10(GI50)"
number = 1.56

[[record]]
structure_string = "C=CC(=O)N1CCC(Oc2cc3c(Nc4ccc(Cl)c(Cl)c4F)ncnc3cc2OC)CC1"
experimental_endpoint = "log10(GI50)"
number = 1.53

[[record]]
structure_string = "C=CC(=O)Nc1cc(Nc2cc(N3OCC[C@@H]3c3ccccc3)ncn2)c(OC)cc1N1CCN(CC)CC1"
experimental_endpoint = "log10(GI50)"
number = 1.11

[[record]]
structure_string = "C=CC(=O)Nc1cc(Nc2cc(N3OCC[C@@H]3c3ccccc3)ncn2)c(OC)cc1N1CC[C@@H](N(C)C)C1"
experimental_endpoint = "log10(GI50)"
number = 1.80

[[record]]
structure_string = "C=CC(=O)Nc1cc(Nc2cc(N3OCC[C@@H]3c3cc(F)cc(F)c3)ncn2)c(OC)cc1N1CCC(N2CCOCC2)CC1"
experimental_endpoint = "log10(GI50)"
number = 0.00


----------
In this section we review reported GI50 values for a set of compounds.
Tested on: H1975
TEST: Lung cancer cell proliferation suppression, H1975
Assay type: cell-based
REPORTED_CONDITIONS: Homo sapiens, NCI-H1975; 72 hours after treatment, CellTiter-Glo
EXPERIMENTAL_ENDPOINT: GI50 (nM)

[[record]]
structure_string = "C=CC(=O)Nc1cc(Nc2cc(N3OCC[C@@H]3c3cc(F)cc(F)c3)ncn2)c(OC)cc1N1CCC(N2CCN(C3CC3)CC2)CC1"
experimental_endpoint = "GI50"
unit_tag = "nM"
number = 1

[[record]]
structure_string = "C=CC(=O)Nc1cc(Nc2cc(N3OCC[C@@H]3c3cc(F)cc(F)c3)ncn2)c(OC)cc1N1CCC(N2C[C@@H]3C[C@H]2CO3)CC1"
experimental_endpoint = "GI50"
unit_tag = "nM"
number = 1

[[record]]
structure_string = "C=CC(=O)Nc1cc(Nc2cc(N3OCC[C@@H]3c3ccccc3)ncn2)c(OC)cc1N1CCC(N2CCOCC2)CC1"
experimental_endpoint = "GI50"
unit_tag = "nM"
number = 9

[[record]]
structure_string = "O=C(Nc1cnn2ccc(N3CCC[C@@H]3c3cc(F)ccc3F)nc12)N1CC[C@H](O)C1"
experimental_endpoint = "GI50"
unit_tag = "nM"
number = 24


----------
System: scanMAX kinase panel (EGFR mutant, ERBB2, ERBB4)
TEST: DiscoverX (eurofin) KINOMEscan (scanMAX platform) kinase profiling
Assay type: binding
REPORTED_CONDITIONS: EGFR(T790M)
In this section we review reported % inhibition of scanMAX Kinase profiling values for a set of compounds.
EXPERIMENTAL_ENDPOINT: % inhibition of scanMAX Kinase profiling (%)

[[record]]
structure_string = "C=CC(=O)Nc1cc(Nc2cc(N3OCC[C@@H]3c3ccccc3)ncn2)c(OC)cc1N1CCC(N2CCN(C)CC2)CC1"
experimental_endpoint = "% inhibition of scanMAX Kinase profiling"
number = 99

[[record]]
structure_string = "C=CC(=O)Nc1cc(Nc2cc(N3OCC[C@@H]3c3cc(F)cc(F)c3)ncn2)c(OC)cc1N1CCC(N(C)C)CC1"
experimental_endpoint = "% inhibition of scanMAX Kinase profiling"
number = 100

[[record]]
structure_string = "C=CC(=O)Nc1cc(Nc2cc(N3OCC[C@@H]3c3cc(F)cc(F)c3)ncn2)c(OC)cc1N1CCC(N2CCOCC2)CC1"
experimental_endpoint = "% inhibition of scanMAX Kinase profiling"
number = 100

[[record]]
structure_string = "C=CC(=O)Nc1cc(Nc2cc(N3OCC[C@@H]3c3cc(F)cc(F)c3)ncn2)c(OC)cc1N1CCC(N2C[C@@H]3C[C@H]2CO3)CC1"
experimental_endpoint = "% inhibition of scanMAX Kinase profiling"
number = 100

[[record]]
structure_string = "C=CC(=O)Nc1cc(Nc2cc(N3OCC[C@@H]3c3cc(F)cc(F)c3)ncn2)c(OC)cc1N1CCC(N2C[C@H]3C[C@@H]2CO3)CC1"
experimental_endpoint = "% inhibition of scanMAX Kinase profiling"
number = 100

[[record]]
structure_string = "C=CC(=O)Nc1cc(Nc2cc(N3OCC[C@@H]3c3cc(F)cc(F)c3)ncn2)c(OC)cc1N1CCC(N2CCN(CC)CC2)CC1"
experimental_endpoint = "% inhibition of scanMAX Kinase profiling"
number = 100


----------
TARGET_DESC: Ba/F3 cell EGFR Exon20 ins NPH (Homo sapiens, UniProt P00533, INS773NPH)
Construct: expressed in transfected cells; host or cells: Ba/F3
TEST: Ba/F3 cell proliferation suppression, EGFR Exon20 ins NPH
Format: cell-based
REPORTED_CONDITIONS: GI50 class; Ba/F3 cell line with NPH inserted at Exon20 of EGFR; 72 hours
Procedure: The following experiment was carried out to evaluate the suppression activity of the compounds according to the present invention against proliferation of Ba/F3 and lung cancer cells which express EGFR mutations. Of the cancer cell lines expressing the EGFR gene, A549 was cultured after adding 10% FBS (HyClone) to DMEM (Invitrogen), and RPMI-1640 (Invitrogen) with 10% FBS was used for the other cancer cells. […] The result was calculated as a cell growth ratio (%) compared to a control. […]
EXPERIMENTAL_ENDPOINT: Ba/F3 (NPH) Activity

[[record]]
structure_string = "C=CC(=O)Nc1cc(Nc2cc(N3OCC[C@@H]3Cc3cccc(F)c3C)ncn2)c(OC)cc1N1CCN(C2CC2)CC1"
experimental_endpoint = "Ba/F3 (NPH) Activity"
result = "A (GI50 < 50 nM)"

[[record]]
structure_string = "C=CC(=O)Nc1cc(Nc2cc(N3OCC[C@@H]3c3cccc(F)c3F)ncn2)c(OC)cc1N1CCN(C)[C@@H](C)C1"
experimental_endpoint = "Ba/F3 (NPH) Activity"
result = "A (GI50 < 50 nM)"

[[record]]
structure_string = "C=CC(=O)Nc1cc(Nc2cc(N3OCC[C@@H]3c3cccc(F)c3F)ncn2)c(OC)cc1N1CCN(C)C[C@H]1C"
experimental_endpoint = "Ba/F3 (NPH) Activity"
result = "A (GI50 < 50 nM)"

